These measurements were taken from patent US11492335B2.

Molecular target: recombinant human VAP-1 (Homo sapiens)
Construct: purchased R&D systems
Assay: Activity on recombinant human VAP-1, Amplex Red HRP-coupled hydrogen peroxide assay, benzylamine substrate
Assay type: biochemical
Settings: recombinant human VAP-1, benzylamine substrate; read-out: Inhibitory Activity (IC50, nM) human VAP-1
Counter-ions that a name gives are not always drawn.
propertyName: log10 IC50 (log10 of the value in nM)
Quick note: numbers are log10 of IC50, with nM as the unit.

Some molecules with recorded log10 IC50:
molecule	log10 IC50
NC/C(=C\F)Cn1ncn(-c2cc(C#Cc3cccnc3)ccn2)c1=O [Example 245, hydrochloride]	-0.05
NC/C(=C\F)Cn1ncn(-c2cccc(C#Cc3ccc4c(c3)CCC(=O)N4)n2)c1=O	-0.70
NC/C(=C\F)Cn1ncn(-c2ncc(-c3ccc4sc(N)nc4c3)cc2F)c1=O [Example 164, hydrochloride]	-0.60
NC/C(=C\F)Cn1ncn(-c2cccc(-c3ccc(N4CCCC4)cc3)n2)c1=O [Example 183, hydrochloride]	0.40
CS(=O)(=O)c1ccc(-c2ccnc(-n3cnn(C/C(=C/F)CN)c3=O)c2)cc1	0.28

Incoming: Reported log10 IC50 for NC/C(=C\F)Cn1ncn(-c2cccc(/C=C/c3cnc4[nH]c(=O)oc4c3)n2)c1=O [Example 242, hydrochloride] : what is it?
Outgoing: 0.18

Incoming: Reported log10 IC50 for CC(C)c1nc(-c2ccc(-c3cccc(-n4cnn(C/C(=C/F)CN)c4=O)n3)cc2)no1 : what is it?
Outgoing: 0.45

====

Target: recombinant human DAO (diamine oxidase) (Homo sapiens, UniProt P19801)
Construct: purchased R&D systems
Sequence (P19801 20-751): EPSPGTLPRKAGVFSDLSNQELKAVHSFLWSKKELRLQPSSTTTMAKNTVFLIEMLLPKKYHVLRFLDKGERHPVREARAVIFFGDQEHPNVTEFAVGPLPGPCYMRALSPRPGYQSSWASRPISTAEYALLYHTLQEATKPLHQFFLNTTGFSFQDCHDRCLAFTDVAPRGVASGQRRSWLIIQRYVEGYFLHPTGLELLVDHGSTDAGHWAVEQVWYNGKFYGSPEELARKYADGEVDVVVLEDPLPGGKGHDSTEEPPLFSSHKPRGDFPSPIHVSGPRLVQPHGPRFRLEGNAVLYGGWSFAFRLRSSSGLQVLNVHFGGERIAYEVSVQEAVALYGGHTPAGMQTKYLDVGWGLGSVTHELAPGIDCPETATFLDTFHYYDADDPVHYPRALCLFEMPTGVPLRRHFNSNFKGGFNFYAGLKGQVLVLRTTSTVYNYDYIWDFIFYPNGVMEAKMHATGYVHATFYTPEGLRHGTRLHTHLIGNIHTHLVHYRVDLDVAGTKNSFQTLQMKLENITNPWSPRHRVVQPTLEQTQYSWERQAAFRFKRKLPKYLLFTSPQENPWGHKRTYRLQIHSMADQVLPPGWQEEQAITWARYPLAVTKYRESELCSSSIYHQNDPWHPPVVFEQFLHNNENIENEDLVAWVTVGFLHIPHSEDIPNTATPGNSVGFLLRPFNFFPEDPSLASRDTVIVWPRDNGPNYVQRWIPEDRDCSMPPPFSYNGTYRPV
Assay: Activity on recombinant human DAO, Amplex Red method, 1 mM putrescine substrate
Type: biochemical
Conditions: recombinant human DAO, 1 mM putrescine; * = between 10 and 100 nM, ** = between 300 and 1000 nM; read-out: Inhibitory Activity (IC50, nM) DAO
Counter-ions that a name gives are not always drawn.
propertyName: IC50

Some compounds with recorded IC50:
compound	IC50
NC/C(=C\F)Cn1ncn(-c2cccc(-c3ccc4nonc4c3)c2)c1=O [Example 96, hydrochloride]	< 100 nM
Cc1cc(-c2ccc(-c3nc[nH]n3)cc2)ncc1-n1cnn(C/C(=C/F)CN)c1=O	< 100 nM

Now consider the entry below.
Incoming: Reported IC50 for CC(C)c1nc(-c2ccc(-c3cccc(-n4cnn(C/C(=C/F)CN)c4=O)c3)cc2)no1 [Example 64, hydrochloride] : what is it?
Outgoing: < 30 nM

====

Molecular target: recombinant human VAP-1 (Homo sapiens, UniProt Q16853)
Construct: purchased R&D systems
Sequence (Q16853 whole entry): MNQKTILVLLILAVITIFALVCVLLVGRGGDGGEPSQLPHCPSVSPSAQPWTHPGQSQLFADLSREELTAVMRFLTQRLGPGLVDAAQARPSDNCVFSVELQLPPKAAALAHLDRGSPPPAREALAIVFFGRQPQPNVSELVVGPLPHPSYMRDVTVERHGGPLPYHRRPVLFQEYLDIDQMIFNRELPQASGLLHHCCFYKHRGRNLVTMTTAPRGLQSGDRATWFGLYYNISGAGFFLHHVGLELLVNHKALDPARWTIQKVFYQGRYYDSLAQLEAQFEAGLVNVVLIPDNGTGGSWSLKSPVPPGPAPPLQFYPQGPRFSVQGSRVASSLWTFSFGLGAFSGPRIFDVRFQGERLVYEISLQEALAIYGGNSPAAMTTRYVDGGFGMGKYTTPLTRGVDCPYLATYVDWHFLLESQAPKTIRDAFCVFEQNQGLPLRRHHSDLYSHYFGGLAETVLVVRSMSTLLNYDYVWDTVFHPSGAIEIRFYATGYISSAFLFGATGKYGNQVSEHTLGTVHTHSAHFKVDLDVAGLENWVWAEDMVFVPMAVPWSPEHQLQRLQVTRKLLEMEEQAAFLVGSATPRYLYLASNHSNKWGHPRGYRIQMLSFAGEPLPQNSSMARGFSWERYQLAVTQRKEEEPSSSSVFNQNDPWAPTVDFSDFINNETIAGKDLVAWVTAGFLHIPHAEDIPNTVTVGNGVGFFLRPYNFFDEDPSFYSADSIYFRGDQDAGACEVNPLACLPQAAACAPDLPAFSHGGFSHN
Test: Activity on recombinant human VAP-1, Amplex Red HRP-coupled hydrogen peroxide assay, benzylamine substrate
Assay type: biochemical
Settings: recombinant human VAP-1, benzylamine substrate, 30 min preincubation at 37° C.; read-out: Inhibitory Activity (IC50, nM) human VAP-1
Where a name gives a salt, the structure may show the parent alone.
propertyName: IC50

Some molecules with recorded IC50:
molecule	IC50
Cc1cc(-c2ccc(S(C)(=O)=O)cc2)ncc1-n1cnn(C/C(=C/F)CN)c1=O [Example 119]	0.94 nM
CC(C)Sc1ccc(-c2cccc(-n3cnn(C/C(=C/F)CN)c3=O)c2)cc1 [Example 52, hydrochloride]	1.2 nM
NC/C(=C\F)Cn1ncn(-c2cccc(-c3ccc(C4CCOCC4)cc3)c2)c1=O [Example 73, hydrochloride]	0.98 nM
Cc1cc(-c2ccc(N3CCOCC3)nc2)cnc1-n1cnn(C/C(=C/F)CN)c1=O [Example 149, hydrochloride]	0.5 nM
Cc1cc(-c2cccc(-n3cnn(C/C(=C/F)CN)c3=O)c2)cn(C)c1=O [Example 89, hydrochloride]	0.6 nM

Incoming: Find IC50 (recombinant human VAP-1 (Homo sapiens, UniProt Q16853)) for the entry NC/C(=C\F)Cn1ncn(-c2cccc(-c3ccc(N4CCOCC4)c(Cl)c3)c2)c1=O [Example 76, hydrochloride]
Outgoing: 0.64 nM

Incoming: Find IC50 (recombinant human VAP-1 (Homo sapiens, UniProt Q16853)) for the entry Cc1cc(-c2cccc(-n3cnn(C/C(=C/F)CN)c3=O)c2)cc2c1NC(=O)CC2 [Example 102, hydrochloride]
Outgoing: 0.2 nM

Incoming: Find IC50 (recombinant human VAP-1 (Homo sapiens, UniProt Q16853)) for the entry NC/C(=C\F)Cn1ncn(-c2cccc(C3=CCNCC3)c2)c1=O [Example 48, dihydrochloride]
Outgoing: 0.56 nM
